Catalogue of CC50 values
Assay Notes: in vitro
Run Parameters: dog

Observe how each entry below is paired with its result.
{"columns": ["Molecule", "CC50"],
 "data": [
  ["CC(C)Cn1c(N)nc2ccccc21", "> 100 µM"],
  ["CCN(CC)c1ccc(/C=N/c2nc3ccc(C#N)cc3n2-c2ccccc2)c(O)c1", "71.6 µM"],
  ["CCN(CC)c1ccc(/C=N/c2nc3ccc(C#N)cc3n2CC(C)C)c(O)c1", "1.3 µM"],
  ["CC(=O)N[C@H]1[C@H]([C@H](O)[C@H](O)CO)OC(C(=O)O)=C[C@@H]1N=C(N)N [Zanamivir, zanamivir, reference compound]", "> 100 µM"]
]}

// query What value of CC50 has been recorded for this entry: `CC(C)Cn1c(/N=C/c2ccc([N+](=O)[O-])cc2)nc2ccc(C#N)cc21`
// result > 100 µM

// query Request: `CN(C)c1ccc(/C=N/c2nc3ccccc3n2-c2ccccc2)cc1`
// result > 100 µM
